Tested on: E. multilocularis metacestodes
Assay: PGI assay: phosphoglucose isomerase release from damaged metacestodes
Format: cell-based, Echinococcus multilocularis
Settings: 10 μM, 5 days, single wells, relative to DB1127 (10 μM)
Below, each entry is listed alongside its reported PGI (% of DB1127 at 10 uM).

| molecule | unit-info | PGI (% of DB1127 at 10 uM) |
| --- | --- | --- |
| CN1CCN(c2nc(Nc3ccc(O)cc3)nc3ccccc23)CC1.Cl | % | -4.90 |
| COc1ccc(CNC(=O)c2cc3c(=O)n4ccccc4nc3n(CCc3ccccc3)c2=N)cc1 | % | 6.76 |
| Cc1ccc(C)c(Cn2c(N3CCC(C(=O)NCc4cccs4)CC3)nc3ccccc32)c1 | % | -17.48 |
| O=C(NC1CCN(Cc2ccccc2)CC1)c1cc2nc(-c3ccc(Cl)s3)cc(C(F)(F)F)n2n1 | % | -11.44 |
| COc1ccc(-c2nonc2NC(=O)c2cccc(Cl)c2)cc1OC | % | -20.61 |
| CCOC(=O)c1cnc2ccc(OC)cc2c1Nc1ccc(N2CCN(C)CC2)cc1 | % | 8.26 |
| Cc1cc(N(C)C)nc(Nc2ccc(NC(=O)Nc3ccccc3)cc2)n1 | % | 0.64 |
| CN1CCN(c2ncnc3c2[nH]c2ccc(Cl)cc23)CC1 | % | -24.85 |
| COc1ccccc1C(=O)ON=C(N)Cc1cccc2ccccc12 | % | 1.82 |
| CCCCc1ccc(NS(=O)(=O)c2cc3c4c(c2)CCN4C(=O)CC3)cc1 | % | -110.46 |
| COc1ccc(C2c3ccc4ccccc4c3Oc3ncn(CCCn4ccnc4)c(=N)c32)cc1OC (stereo not drawn) | % | -1.19 |
| Cc1ccc(-c2cc3c(nn2)-c2ccccc2C3=O)cc1 | % | -22.93 |
| C=CC12CCN(CC1)C(C(O)c1ccnc3ccc(OC)cc13)C2.Cl (stereo not drawn) | % | -43.49 |
| COc1cccc(C(=O)Nc2ccc(-c3nc4ccccc4[nH]3)cc2)c1 | % | -25.80 |
| CCCN(CCC)CCCNC(=O)c1cc2c(-c3ccc(OC)c(OC)c3)nn(C)c2s1 | % | -1.54 |
| COc1ccc(-c2cc3c(nn2)-c2ccccc2C3=O)cc1 | % | -10.04 |
| CCOC(=O)c1cnc2c(C)cc(C)cc2c1Nc1ccc(OC)c(OC)c1 | % | -43.41 |
| O=C(NCc1ccco1)C1CCN(S(=O)(=O)c2ccc(Cl)cc2)CC1 | % | -16.08 |
| Cc1sc(NC(=O)c2ccccc2)c(C(c2cccs2)N2CCN(c3ccccc3)CC2)c1C (stereo not drawn) | % | -26.88 |
| CC(C)CCNCC(O)Cn1c2ccccc2c2ccccc21.Cl (stereo not drawn) | % | 62.04 |
| CCN(CC)c1ccc(NC(=O)c2cccs2)cc1 | % | -36.82 |
